# Test system: IGROV1 ovarian
# assay-comment: NCI-60 one-dose screen, 48 h (100 = growth as untreated, 0 = no growth, -100 = all killed)
# settings: 10 µM unless noted
This is part of a sample that, as a whole, favours compounds with a hit. Of some 83,000 tested, about 20% had one in any assay.
Assign labels as follows, please: met for growth below 50%; not met for growth equal to or exceeding 50%.

Query: Here's an entry: `CC[C@H](C)[C@H](NC(=O)[C@H]1CCCCN1C)C(=O)N(C)[C@H](CC(=O)c1nc(C(=O)N[C@@H](Cc2ccccc2)C[C@H](C)C(=O)O)cs1)C(C)C` . Is its growth below 50%?
Result: not met

Query: Item `COC(=O)[C@@H](C)C[C@H](Cc1ccccc1)NC(=O)c1nc([C@@H](C[C@H](C(C)C)N(C)C(=O)[C@@H](NC(=O)[C@H]2CCCCN2C)C(C)C)OC(C)=O)sc1C` : growth beneath 50%, strictly?
Result: met

Query: Lab log: compare recorded growth with 50%; is it strictly lower for `COc1cc([C@@H]2c3cc4c(cc3[C@H](OC(C)=O)[C@H]3COC(=O)[C@H]23)OCO4)cc(OC)c1OC` ?
Result: met

Query: Lab note: confirm whether the reported growth for this compound is below 50%, equality not counting. compound: CC12CCC3C(CCC4=CC(=O)CCC43CF)C1CCC2=O (stereo not drawn)
Result: not met

Query: is_below(growth, 50%) for `COC(=O)[C@@H](C)C[C@H](Cc1ccc(F)cc1)NC(=O)c1csc([C@@H](C[C@H](C(C)C)N(C)C(=O)[C@@H](NC(=O)[C@H]2CCCCN2C)C(C)C)OC(C)=O)n1` ?
Result: met

Query: Item `COC(=O)[C@H](Cc1ccccc1)NC(=O)c1csc([C@@H](C[C@H](C(C)C)N(C)C(=O)[C@@H](NC(=O)[C@H]2CCCCN2C)C2CC2)OC(C)=O)n1` : growth beneath 50%, strictly?
Result: met

Query: Problem: For the compound `CN(C)C(=O)Oc1ccccc1-c1ccccc1` , is growth under 50%?
Result: not met

Query: Here's an entry: `O=C(O)CNC(=O)C(Cl)(Cl)Cl` . Is its growth below 50%?
Result: not met

Query: growth under 50%? Item: `Fc1c[c-]c(-c2ccccn2)c(F)c1.[CH3-].[Pt+2].c1ccc([PH+](c2ccccc2)c2ccccn2)cc1`
Result: met

Query: In plain terms, does CN1CCCCC1C(C)(O)c1ccccc1 (stereo not drawn) come in under 50% for growth?
Result: not met

Query: Field: below-cutoff. Rule: recorded growth strictly less than 50%. Subject: `CC(=O)O[C@H](C[C@H](C(C)C)N(C)C(=O)[C@@H](NC(=O)[C@H]1CCCCN1C)C(C)C)c1nc(C(=O)N[C@@H](Cc2ccccc2)C[C@H](C)C(=O)O)c(C)s1`
Result: met

Query: I'd appreciate it if you could check whether `CC(C)=CCc1c(O)c(C(=O)CC(C)C)c(O)c2c(-c3ccccc3)cc(=O)oc12` has growth smaller than 50%.
Result: not met

Query: Given `ClCCN(CCCl)c1ccc(OCc2ccccc2)cc1` , is recorded growth strictly lower than 50%?
Result: not met

Query: Given the entry `COc1cc2c(=O)n(C3CCCCCCC3)c3c4cc[nH]c4ncc3c2cc1OC` , would its reported growth be below 50%?
Result: met

Query: Say whether its growth is strictly beneath 50%. Entry: O=[N+]([O-])CC(c1ccccc1Cl)c1c(-c2ccccc2)[nH]c2ccccc12 (stereo not drawn)
Result: met

Query: Record `Cc1cc(N(CCCl)CCCl)ccc1C=Nc1ccc(-c2csc(Cc3ccccc3)n2)cc1` : is its growth strictly below 50%?
Result: not met

Query: Item CCCCCCCCCCCCCCCCCC1OC[C@H](COC(=O)O[C@@H](C(=O)O[C@H]2C[C@@]3(O)[C@@H](OC(=O)c4ccccc4)[C@@H]4[C@]5(OC(C)=O)CO[C@@H]5C[C@H](O)[C@@]4(C)C(=O)[C@H](OC(C)=O)C(=C2C)C3(C)C)[C@@H](NC(=O)c2ccccc2)c2ccccc2)O1 (stereo partly drawn) : growth beneath 50%, strictly?
Result: met

Query: Please indicate whether the reported growth of `NC(CCl)CCl` is strictly below 50%.
Result: not met
